assay: Partition coefficient (logP); type: physicochemical; settings: octanol/water
logP overview
Keep the answer to the number alone.

Could you tell me which logP is on file for `O=C(CO)[C@H]1CCCN1C(=O)[C@@H]1CCCN1C(=O)c1cccc(C(=O)N2CCC[C@@H]2C(=O)C2CCCC2)c1` ?
0.2

Entry under review: `CC(=O)[C@H]1CCCN1C(=O)c1cccc(C(=O)N2CCC[C@H]2C(=O)N2CCC[C@@H]2C#N)c1` . Reported logP?
-0.6

Which measured logP value corresponds to `CC(C)(CC(=O)N1CCC[C@H]1C(=O)C1CCCC1)CC(=O)N1CCC[C@H]1C(=O)N1CCC[C@H]1C(=O)CO` ?
0.7

Continuing:
Item `CC(C)C(=O)[C@H]1CCCN1C(=O)c1cccc(C(=O)N2CCC[C@H]2C(=O)N2CCC[C@@H]2C#N)c1` has what recorded logP?
0.3

Which logP reading was recorded for the compound `N#C[C@H]1CCCN1C(=O)[C@@H]1CCCN1C(=O)c1cccc(C(=O)N2CCC[C@@H]2C(=O)C2CCCC2)c1` ?
0.8

Consider the compound shown here: `O=C(C1CCCC1)[C@H]1CCCN1C(=O)c1cccc(C(=O)N2CCC[C@H]2C(=O)C2CCCC2)c1` What is its recorded logP?
2.7

Given the compound `O=C([C@@H]1CCCN1C(=O)c1cccc(C(=O)N2CCC[C@H]2C(=O)N2CCCC2)c1)N1CCCC1` , what is its reported logP?
-0.2

Please give the measured logP for this compound: `N#C[C@H]1CCCN1C(=O)[C@@H]1CCCN1C(=O)c1cccc(C(=O)N2CCC[C@@H]2C(=O)c2ccccc2)c1`
1.1

###

target: Prolyl endopeptidase (Sus scrofa, UniProt P23687)
Sequence (P23687 whole entry): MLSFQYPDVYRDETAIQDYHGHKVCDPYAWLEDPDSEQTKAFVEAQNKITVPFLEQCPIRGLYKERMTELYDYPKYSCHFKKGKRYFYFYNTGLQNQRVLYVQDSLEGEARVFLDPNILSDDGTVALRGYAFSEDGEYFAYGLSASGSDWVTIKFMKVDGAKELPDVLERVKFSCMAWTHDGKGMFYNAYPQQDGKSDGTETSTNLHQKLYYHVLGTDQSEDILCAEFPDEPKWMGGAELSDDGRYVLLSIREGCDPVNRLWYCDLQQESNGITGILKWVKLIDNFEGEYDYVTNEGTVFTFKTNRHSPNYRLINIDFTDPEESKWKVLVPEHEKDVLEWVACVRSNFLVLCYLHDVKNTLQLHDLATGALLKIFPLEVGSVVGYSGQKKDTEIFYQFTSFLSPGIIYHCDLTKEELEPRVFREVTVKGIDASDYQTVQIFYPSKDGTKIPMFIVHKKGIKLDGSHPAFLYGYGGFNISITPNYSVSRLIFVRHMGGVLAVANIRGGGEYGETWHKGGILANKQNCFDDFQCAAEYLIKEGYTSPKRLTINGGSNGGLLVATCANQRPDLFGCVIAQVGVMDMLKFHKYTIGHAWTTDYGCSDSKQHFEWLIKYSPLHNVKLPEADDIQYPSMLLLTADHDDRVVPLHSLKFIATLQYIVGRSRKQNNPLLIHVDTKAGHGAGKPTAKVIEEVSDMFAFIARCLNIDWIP
IC50 under 2 nM gets rule met, anything at or over 2 nM gets rule not met.

Lab note: confirm whether the reported IC50 for this molecule is below 2 nM, equality not counting. molecule: `CSCC[C@H](NC(=O)c1cccc(C(=O)N[C@H](CCSC)C(=O)N2CCCC2)c1)C(=O)N1CCCC1`
rule not met

Next molecule, please.
Lab note: IC50 threshold 2 nM. Does this molecule come in strictly under it? `COC(=O)[C@H]1CCCN1C(=O)c1cccc(C(=O)N2CCC[C@H]2C(=O)C2CCCC2)c1`
rule not met

###

molecular target: UniProt P23687
I'd appreciate it if you marked entries YES when IC50 is lower than 10 nM and NO when it is not.

Below 10 nM on IC50? Entry `O=C([C@H]1CCCN1C(=O)c1cccc(C(=O)N2CCC[C@H]2C(=O)N2CCNCC2)c1)N1CCCC1`
NO

Continuing:
Does the reported IC50 of the following molecule sit strictly below 10 nM? `N#C[C@H]1CCCN1C(=O)[C@@H]1CCCN1C(=O)c1cccc(C(=O)N2CCC[C@@H]2C(=O)C2CCCC2)c1`
YES

Report whether reported IC50 is lower than 10 nM (strictly) for `O=C(C1CCCC1)[C@H]1CCCN1C(=O)c1cccc(C(=O)N2CCC[C@H]2C(=O)C2CCCC2)c1`
NO

Consider the molecule `O=C(N[C@@H](Cc1ccccc1)C(=O)N1CCCC1)c1cccc(C(=O)N[C@H](Cc2ccccc2)C(=O)N2CCCC2)c1` . Is its IC50 strictly less than 10 nM?
NO

State whether 10 nM exceeds IC50 recorded for `O=C(CO)[C@@H]1CCCN1C(=O)[C@@H]1CCCN1C(=O)c1cccc(C(=O)N2CCC[C@H]2C(=O)N2CCCC2)c1` .
YES

A record lists `O=C(CO)[C@H]1CCCN1C(=O)[C@@H]1CCCN1C(=O)c1cccc(C(=O)N2CCC[C@@H]2C(=O)C2CCCC2)c1` . Is its IC50 below 10 nM?
YES

Please determine if `O=C(C1CCCC1)[C@H]1CCCN1C(=O)c1cccc(C(=O)N2CCC[C@H]2C(=O)N2CCCC2)c1` is below 10 nM in terms of IC50.
NO

Confirm or reject: IC50 of `CC(C)C(=O)[C@H]1CCCN1C(=O)c1cccc(C(=O)N2CCC[C@H]2C(=O)N2CCC[C@@H]2C#N)c1` lies strictly below 10 nM
YES
